TEST CONTEXT: in n-butanol, 323.15 K
READOUT: solubility (mole fraction)
Please give the numeric answer without any surrounding text.

Using the record for `COc1ccc(C(=O)O)c(OC)c1` , report its solubility (mole fraction).
0.0498

---

TEST CONTEXT: in ethyl acetate, 298.15 K
READOUT: solubility (mole fraction)

Reported solubility (mole fraction) for `COc1ccc(C(=O)O)c(OC)c1` : what is it?
0.0253

---

TEST CONTEXT: in ethyl acetate, 288.15 K
READOUT: solubility (mole fraction)
Keep it simple and answer with nothing but the number.

Would you mind telling me what solubility (mole fraction) value was observed for `COc1ccc(C(=O)O)c(OC)c1` ?
0.0165

Cited source: BigSolDB 2.1
